Listed here: items and their measured Kd.
system under test: T1, hLTBP1-proTGFβ1 (human, UniProt Q14766 347-1721; P01137 30-390, limits assumed)
T1 construct: Large latent complex (LLC): proTGFβ1 dimer disulfide-linked to one presenting molecule; recombinant, purified, biotinylated in BLI/SPR; The same id is used for the complex made by transfected cells in the reporter assays; also called human LTBP1-proTGFβ1 complex; LTBP1-ProTGFb1
T1 sequence (Q14766 347-1721 limits assumed, chain 1 of 2): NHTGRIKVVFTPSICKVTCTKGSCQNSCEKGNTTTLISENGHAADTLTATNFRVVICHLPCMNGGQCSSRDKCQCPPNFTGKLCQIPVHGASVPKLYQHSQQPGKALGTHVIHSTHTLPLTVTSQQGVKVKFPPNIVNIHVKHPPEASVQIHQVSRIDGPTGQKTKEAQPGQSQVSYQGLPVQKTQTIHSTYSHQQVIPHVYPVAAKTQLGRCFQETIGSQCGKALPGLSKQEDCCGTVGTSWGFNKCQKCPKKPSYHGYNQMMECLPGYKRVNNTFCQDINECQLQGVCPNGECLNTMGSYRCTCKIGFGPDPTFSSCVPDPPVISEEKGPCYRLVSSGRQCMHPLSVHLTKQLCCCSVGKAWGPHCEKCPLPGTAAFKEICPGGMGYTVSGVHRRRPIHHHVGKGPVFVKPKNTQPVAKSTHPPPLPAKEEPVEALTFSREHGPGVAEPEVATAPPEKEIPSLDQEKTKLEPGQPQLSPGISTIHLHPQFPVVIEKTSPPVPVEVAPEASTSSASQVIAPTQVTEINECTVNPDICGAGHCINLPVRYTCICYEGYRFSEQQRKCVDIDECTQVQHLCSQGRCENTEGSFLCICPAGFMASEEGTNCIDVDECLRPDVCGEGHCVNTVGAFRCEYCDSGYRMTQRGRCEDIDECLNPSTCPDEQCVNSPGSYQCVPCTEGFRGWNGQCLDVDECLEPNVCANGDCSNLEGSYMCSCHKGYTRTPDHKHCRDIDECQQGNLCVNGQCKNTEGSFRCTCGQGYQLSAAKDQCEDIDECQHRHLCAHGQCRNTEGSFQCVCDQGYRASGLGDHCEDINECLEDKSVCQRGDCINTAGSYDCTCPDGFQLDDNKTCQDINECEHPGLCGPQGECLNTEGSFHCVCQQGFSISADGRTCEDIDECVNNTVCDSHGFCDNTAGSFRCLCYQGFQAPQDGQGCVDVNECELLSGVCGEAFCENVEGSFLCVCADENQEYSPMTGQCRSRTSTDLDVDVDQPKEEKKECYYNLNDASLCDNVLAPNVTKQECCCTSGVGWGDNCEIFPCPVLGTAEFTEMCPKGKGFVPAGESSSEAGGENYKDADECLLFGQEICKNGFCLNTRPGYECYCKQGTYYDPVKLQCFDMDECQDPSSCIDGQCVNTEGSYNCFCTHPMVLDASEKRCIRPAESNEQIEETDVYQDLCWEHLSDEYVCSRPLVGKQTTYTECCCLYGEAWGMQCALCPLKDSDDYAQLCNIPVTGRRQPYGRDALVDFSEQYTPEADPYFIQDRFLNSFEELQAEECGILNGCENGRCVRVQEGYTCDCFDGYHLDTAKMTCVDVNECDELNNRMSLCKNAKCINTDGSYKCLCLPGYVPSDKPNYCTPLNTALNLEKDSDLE
T1 sequence (P01137 30-390 limits assumed, chain 2 of 2): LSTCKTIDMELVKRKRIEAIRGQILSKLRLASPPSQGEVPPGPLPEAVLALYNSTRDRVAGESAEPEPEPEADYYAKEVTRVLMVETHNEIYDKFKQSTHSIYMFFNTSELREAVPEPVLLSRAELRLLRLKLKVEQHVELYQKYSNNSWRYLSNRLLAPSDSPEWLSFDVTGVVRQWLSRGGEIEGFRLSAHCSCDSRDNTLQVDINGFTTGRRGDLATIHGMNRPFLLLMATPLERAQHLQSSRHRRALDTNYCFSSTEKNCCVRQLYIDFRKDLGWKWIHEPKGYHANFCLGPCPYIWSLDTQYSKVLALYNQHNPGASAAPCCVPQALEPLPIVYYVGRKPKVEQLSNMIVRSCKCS
measurement notes: BLI (Octet)
The reply should contain only the number, in nM.

binder: Ab28 (antibody, V domains shown) VH: EVQLVESGGGLVQPGGSLRLSCAASGFTFSSFSMDWVRQAPGKGLEWVSYISPDASTIYYADSVKGRFTISRDNAKNSLYLQMNSLRAEDTAVYYCVRGVLDYGDMLDPWGQGTLVTVSS VL: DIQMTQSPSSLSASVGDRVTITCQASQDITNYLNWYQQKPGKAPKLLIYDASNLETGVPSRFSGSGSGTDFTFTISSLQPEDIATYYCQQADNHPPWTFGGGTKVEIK
Kd [nM]: 0.34
--
binder: Ab23 (antibody, V domains shown) VH: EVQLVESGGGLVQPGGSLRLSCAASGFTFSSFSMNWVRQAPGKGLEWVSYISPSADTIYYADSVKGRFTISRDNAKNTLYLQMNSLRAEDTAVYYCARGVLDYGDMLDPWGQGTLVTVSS VL: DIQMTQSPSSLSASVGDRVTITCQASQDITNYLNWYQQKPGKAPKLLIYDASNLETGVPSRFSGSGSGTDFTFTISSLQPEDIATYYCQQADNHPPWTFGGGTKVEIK
Kd [nM]: 0.417
--
binder: Ab31 (antibody, V domains shown) VH: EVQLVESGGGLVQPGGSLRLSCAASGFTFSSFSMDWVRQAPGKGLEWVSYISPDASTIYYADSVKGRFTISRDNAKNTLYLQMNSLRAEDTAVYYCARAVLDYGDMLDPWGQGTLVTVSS VL: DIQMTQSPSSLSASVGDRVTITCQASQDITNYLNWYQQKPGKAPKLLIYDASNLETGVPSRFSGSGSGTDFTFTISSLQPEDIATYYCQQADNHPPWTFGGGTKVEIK
Kd [nM]: 0.236
--
binder: Ab25 (antibody, V domains shown) VH: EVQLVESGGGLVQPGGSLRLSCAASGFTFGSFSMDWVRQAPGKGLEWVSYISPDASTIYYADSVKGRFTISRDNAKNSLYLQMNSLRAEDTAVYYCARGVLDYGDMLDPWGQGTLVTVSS VL: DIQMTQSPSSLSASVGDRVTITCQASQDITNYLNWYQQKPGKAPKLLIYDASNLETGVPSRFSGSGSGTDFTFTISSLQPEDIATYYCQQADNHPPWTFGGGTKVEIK
Kd [nM]: 0.217

Would you kindly look at the next entry?
Inquiry: Note down Kd recorded for Ab24 (antibody, V domains shown) VH: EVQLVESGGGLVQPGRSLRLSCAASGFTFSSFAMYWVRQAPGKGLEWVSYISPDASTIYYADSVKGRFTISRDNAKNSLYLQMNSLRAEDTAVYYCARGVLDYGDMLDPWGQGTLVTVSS VL: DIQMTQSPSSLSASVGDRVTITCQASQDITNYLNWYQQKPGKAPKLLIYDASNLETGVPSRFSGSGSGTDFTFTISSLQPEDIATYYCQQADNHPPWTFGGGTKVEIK
Reply text: 0.246
